system: NCI-H1703 (Squamous Cell Lung Carcinoma); experiment: combination Emax (second highest fraction inhibited in the dose matrix, 72 h); higher = more inhibition; extreme values may be limits of the assay

- Compound: "N#Cc1cnc(Nc2cc(NC[C@H]3CNCCO3)c(C(F)(F)F)cn2)cn1 [SRA737] + C=CCn1c(=O)c2cnc(Nc3ccc(N4CCN(C)CC4)cc3)nc2n1-c1cccc(C(C)(C)O)n1 [AZD1775] (first compound max 10 µM, partner max 1 µM)"
  combination Emax: 0.972
- Compound: "CN(CCO)CC[C@H](CSc1ccccc1)Nc1ccc(S(=O)(=O)NC(=O)c2ccc(N3CCC([C@@H](O)c4ccccc4-c4ccc(Cl)cc4)CC3)cc2)cc1S(=O)(=O)C(F)(F)F [AZD4320] + CCN(CCO)CCCOc1ccc2c(Nc3cc(CC(=O)Nc4cccc(F)c4)[nH]n3)ncnc2c1 [AZD2811] (first compound max 1 µM, 7x7, partner max 1 µM)"
  combination Emax: 0.473
